B1: STX11 (parent)
chain: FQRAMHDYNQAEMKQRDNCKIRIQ

Variants of: B1
Test: protein stability index of a GFP-peptide fusion (GPS, HEK-293T) (PSI 1-6); higher = more stable;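 also: lentivirally expressed fusions sorted by FACS into six bins by GFP to DsRed ratio, PSI derived from sequencing read proportions per bin multiplied by bin number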
Settings: c terminus: a fixed tail appended
Label criterion not met if protein stability index falls below 3; label criterion met in every other case.

*Q* Could you verify whether the entry FQRACHDYNQAEMKQRDNCKIRIQ [M5C] shows protein stability index of no less than 3?
*A* criterion not met

*Q* Could you verify whether the entry FQRAMHDYNQAEMKQRDNCHIRIQ [K20H] shows protein stability index of no less than 3?
*A* criterion met

*Q* Could you verify whether the entry FQRAMHDYNQARMKQRDNCKIRIQ [E12R] shows protein stability index of no less than 3?
*A* criterion not met

*Q* Could you verify whether the entry FQRAMHDYNQAEMKQRDNCRIRIQ [K20R] shows protein stability index of no less than 3?
*A* criterion not met

*Q* Could you verify whether the entry EQRAMHDYNQAEMKQRDNCKIRIQ [F1E] shows protein stability index of no less than 3?
*A* criterion met

*Q* Could you verify whether the entry FQRAMHQYNQAEMKQRDNCKIRIQ [D7Q] shows protein stability index of no less than 3?
*A* criterion not met

*Q* Could you verify whether the entry FQRAMADYNQAEMKQRDNCKIRIQ [H6A] shows protein stability index of no less than 3?
*A* criterion not met

*Q* Could you verify whether the entry FQRAMHDYNQAEMKQRDNCKIWIQ [R22W] shows protein stability index of no less than 3?
*A* criterion not met

*Q* Could you verify whether the entry FQRNMHDYNQAEMKQRDNCKIRIQ [A4N] shows protein stability index of no less than 3?
*A* criterion not met

*Q* Could you verify whether the entry FCRAMHDYNQAEMKQRDNCKIRIQ [Q2C] shows protein stability index of no less than 3?
*A* criterion not met

*Q* Could you verify whether the entry FQRAMHDYNQAEMKQRDNCQIRIQ [K20Q] shows protein stability index of no less than 3?
*A* criterion not met
